- Tested on: DIV14
- RUN_DESCRIPTION: qHTS profiling for inhibitors of Plasmodium falciparum proliferation (AID 504749); also: nearly all actives have a fitted effect of over 60% in size; also: potency is read from the fitted curve at half-maximal effect
- EXPERIMENTAL_CONDITIONS: P. falciparum in erythrocytes, SYBR Green DNA, 72 h; series mostly up to 28.7 µM
Results filed as inconclusive are left out. Activity calls are given as the source filed them. Calls follow the shape of the dose curve; as a rule, active = well fitted inhibition curve with a large enough effect; inconclusive = small, poorly fitted or top-dose-only effect; inactive = flat fitted curve, though single readings scatter.
MEASURE_NAME: Potency

COMPOUND	EXPERIMENTAL_TARGET	RESULT
CC(C(=O)O)c1ccc(CC2CCCC2=O)cc1 (stereo not drawn)	DIV14	inactive
CN(C)C(=O)Oc1cccc([N+](C)(C)C)c1	DIV14	inactive
COc1cc2c(cc1OC)-c1cc(=Nc3c(C)cc(C)cc3C)n(C)c(=O)n1CC2	DIV14	3.01 µM (active)

* * *

- Test system: GB4
- RUN_DESCRIPTION: qHTS profiling for inhibitors of Plasmodium falciparum proliferation (AID 504749); also: nearly all actives have a fitted effect of over 60% in size
- EXPERIMENTAL_CONDITIONS: P. falciparum in erythrocytes, SYBR Green DNA, 72 h; series mostly up to 28.7 µM
Inconclusive results are not listed. The source made the active and inactive calls. Calls follow the shape of the dose curve; as a rule, active = well fitted inhibition curve with a large enough effect; inconclusive = small, poorly fitted or top-dose-only effect; inactive = flat fitted curve, though single readings scatter.
Possible outcomes: active, inactive

COMPOUND	EXPERIMENTAL_TARGET	QUALITATIVE_LABEL
Nc1c2c(nc3ccccc13)CCCC2O (stereo not drawn)	GB4	inactive
NC(Cc1ccc(Cl)cc1)C(=O)O (stereo not drawn)	GB4	inactive
CC(=O)[C@@]1(O)CC[C@H]2[C@@H]3CCC4=CC(=O)CC[C@]4(C)[C@H]3CC[C@@]21C	GB4	inactive
CCN1CCC[C@H]1CNC(=O)c1c(O)c(Cl)cc(Cl)c1OC	GB4	inactive
CCN1CCc2nc(N)oc2CC1	GB4	inactive
CCN(CC)CCNC(=O)c1ccc(NC(C)=O)cc1	GB4	inactive
CC(=O)[C@]1(O)Cc2c(O)c3c(c(O)c2[C@@H](O[C@H]2C[C@H](N)[C@H](O)[C@H](C)O2)C1)C(=O)c1ccccc1C3=O	GB4	active
O=C(O)CP(=O)(O)O	GB4	inactive
CC(=O)Nc1nnc(S(N)(=O)=O)s1	GB4	inactive
NC(N)=NC(=O)Cc1c(Cl)cccc1Cl	GB4	active
CN1C[C@H](C(=O)N[C@]2(C)O[C@@]3(O)[C@@H]4CCCN4C(=O)[C@H](Cc4ccccc4)N3C2=O)C[C@@H]2c3cccc4[nH]cc(c34)C[C@H]21	GB4	active
CN=C(NC#N)NCCSCc1nc[nH]c1C	GB4	inactive
CN(C)CCOC(=O)COc1ccc(Cl)cc1	GB4	inactive
COc1ccc(CN(CCN(C)C)c2ccccn2)cc1	GB4	active
CC1=NS(=O)(=O)c2cc(Cl)ccc2N1	GB4	inactive
COc1cc2c(cc1OC)-c1cc(=Nc3c(C)cc(C)cc3C)n(C)c(=O)n1CC2	GB4	active
FC(F)(F)c1ccccc1-n1ccnc1	GB4	inactive
OC(CCN1CCCCC1)(c1ccccc1)C1CCCCC1 (stereo not drawn)	GB4	inactive

* * *

- Test system: CP217
- RUN_DESCRIPTION: qHTS profiling for inhibitors of Plasmodium falciparum proliferation (AID 504749); also: nearly all actives have a fitted effect of over 60% in size
- EXPERIMENTAL_CONDITIONS: P. falciparum in erythrocytes, SYBR Green DNA, 72 h; series mostly up to 28.7 µM
Results filed as inconclusive are left out. Active and inactive are the calls of the source. Calls follow the shape of the dose curve; as a rule, active = well fitted inhibition curve with a large enough effect; inconclusive = small, poorly fitted or top-dose-only effect; inactive = flat fitted curve, though single readings scatter.
Possible outcomes: active, inactive

MOLECULE	QUALITATIVE_LABEL
O=C(CCNNC(=O)c1ccncc1)NCc1ccccc1	inactive
CCN(CC)CCNC(=O)c1cc(S(C)(=O)=O)ccc1OC	inactive
CN=C(NC#N)NCCSCc1nc[nH]c1C	inactive
NC(N)=NC(=O)Cc1c(Cl)cccc1Cl	active
CN(C)C(=O)Oc1cccc([N+](C)(C)C)c1	inactive
COC(=O)[C@@H](N)Cc1ccc(O)c(O)c1	inactive
CCCCCN(CCCCC)C(=O)C(CCC(=O)O)NC(=O)c1ccc(Cl)c(Cl)c1 (stereo not given)	inactive
Brc1c(NC2=NCCN2)ccc2nccnc12	inactive
CN(C)CC[C@@H](c1ccc(Br)cc1)c1ccccn1	inactive
CCCCNc1c(C(=O)OCC)c(C)nc2c1cnn2CC	inactive
COc1ccc([C@@H]2Sc3ccccc3N(CCN(C)C)C(=O)[C@@H]2OC(C)=O)cc1	inactive
C[C@H](CS)C(=O)N1CCC[C@H]1C(=O)O	inactive
CC1=C(C)C(=O)C(CCCCC#CCCCC#CCO)=C(C)C1=O	active
CCOC(=O)c1cnc2c(cnn2CC)c1NN=C(C)C	inactive
CCCCNC(=O)NS(=O)(=O)c1ccc(C)cc1	inactive
NC1=NCC2c3ccccc3Cc3ccccc3N12 (stereo not given)	inactive
CCn1cc(C(=O)O)c(=O)c2cc3c(cc21)OCO3	inactive
Cc1ccc(S(=O)(=O)NC(=O)NN2CCCCCC2)cc1	inactive
CC(=O)Oc1cc(C(C)C)c(OCCN(C)C)cc1C	inactive
CN1CCN(CC(=O)N2c3ccccc3C(=O)Nc3cccnc32)CC1	inactive

* * *

- System: PC15
- RUN_DESCRIPTION: qHTS profiling for inhibitors of Plasmodium falciparum proliferation (AID 504749); also: nearly all actives have a fitted effect of over 60% in size
- EXPERIMENTAL_CONDITIONS: P. falciparum in erythrocytes, SYBR Green DNA, 72 h; series mostly up to 28.7 µM
Inconclusive results are not listed. Active and inactive are the calls of the source. The call rests on the fitted dose curve; in most records, active means well fitted inhibition curve with a large enough effect; inconclusive means small, poorly fitted or top-dose-only effect; inactive means flat fitted curve, though single readings scatter.
Classes used: active, inactive

COMPOUND	QUALITATIVE_LABEL
CN(C(=O)CCCOc1ccc2[nH]c(=O)ccc2c1)C1CCCCC1	inactive
CCCN(CCC)CCc1cccc2c1CC(=O)N2	inactive
NC(Cc1ccc(Cl)cc1)C(=O)O (stereo not drawn)	inactive
CC(C)[N+](C)(CCOC(=O)C1c2ccccc2Oc2ccccc21)C(C)C	inactive
CNC1(C)C2CCC(C2)C1(C)C (stereo not drawn)	inactive
CCCCOCCOCCOCc1cc2c(cc1CCC)OCO2	inactive
OCCN1CCN(CCCN2c3ccccc3C=Cc3ccccc32)CC1	active
O=C1NCN(c2ccccc2)C12CCN(CCCC(c1ccc(F)cc1)c1ccc(F)cc1)CC2	active
COC(=O)[C@@H](N)Cc1ccc(O)c(O)c1	inactive
FC(F)(F)c1ccccc1-n1ccnc1	inactive
O=C(O)CCCCCCCC(=O)O	inactive
C[n+]1cc2c3c(ccc2c2ccc4cc5c(cc4c21)OCO5)OCO3	inactive
C[N+](C)(C)CCOC(=O)CCC(=O)OCC[N+](C)(C)C	inactive
COc1ccc(CN(CCN(C)C)c2ccccn2)cc1	inactive
C[N+](C)(C)CCOC(N)=O	inactive
CN(C)CCCN1c2ccccc2Sc2ccccc21	active
CC(=O)Nc1nnc(S(N)(=O)=O)s1	inactive
OCCN1CCN(CC/C=C2/c3ccccc3Sc3ccc(C(F)(F)F)cc32)CC1	active
O=C(O)CP(=O)(O)O	inactive
CC(=O)[C@]1(O)Cc2c(O)c3c(c(O)c2[C@@H](O[C@H]2C[C@H](N)[C@H](O)[C@H](C)O2)C1)C(=O)c1ccccc1C3=O	active
Cc1cc(C)c(/C=C2\C(=O)Nc3ccccc32)[nH]1	inactive
O=c1[nH]c(=O)n([C@H]2C[C@H](O)[C@@H](CO)O2)cc1Br	inactive
COCC(=O)O[C@]1(CCN(C)CCCc2nc3ccccc3[nH]2)CCc2cc(F)ccc2[C@@H]1C(C)C	active
CCOC(=O)c1cnc2c(cnn2CC)c1NN=C(C)C	inactive
CCc1cccc(N(C)C(N)=Nc2cccc3ccccc23)c1	active
CCN(CC)CCCN(c1ccccc1)C1Cc2ccccc2C1	active
NC/C=C/C(=O)O	inactive
C[C@H](CS)C(=O)N1CCC[C@H]1C(=O)O	inactive
CCCCNC(=O)NS(=O)(=O)c1ccc(C)cc1	inactive
CCN1CCC[C@H]1CNC(=O)c1c(O)c(Cl)cc(Cl)c1OC	inactive
CCCC(C(=O)OCCN(CC)CC)(c1ccccc1)c1ccccc1	active
CC(C)NNC(=O)c1ccncc1	inactive
NC(=O)c1ncn([C@@H]2O[C@H](CO)[C@@H](O)[C@H]2O)c1O	inactive
C[N+](C)(C)CCCCCCCCCC[N+](C)(C)C	active
O=C(O)CN(CCN(CC(=O)O)CC(=O)O)CCN(CC(=O)O)CC(=O)O	inactive
NC(=O)c1cn(Cc2c(F)cccc2F)nn1	inactive
CCCCCN(CCCCC)C(=O)C(CCC(=O)O)NC(=O)c1ccc(Cl)c(Cl)c1 (stereo not drawn)	inactive
COC(=O)[C@H]1[C@H]2C[C@@H]3c4[nH]c5cc(OC)ccc5c4CCN3C[C@H]2C[C@@H](OC(=O)c2cc(OC)c(OC)c(OC)c2)[C@@H]1OC	active

* * *

- System: C2A
- RUN_DESCRIPTION: qHTS profiling for inhibitors of Plasmodium falciparum proliferation (AID 504749); also: nearly all actives have a fitted effect of over 60% in size
- EXPERIMENTAL_CONDITIONS: P. falciparum in erythrocytes, SYBR Green DNA, 72 h; series mostly up to 28.7 µM
Inconclusive results are not listed. Calls of active or inactive are those of the source. Calls come from the whole dose curve; as a rule, active = well fitted inhibition curve with a large enough effect; inconclusive = small, poorly fitted or top-dose-only effect; inactive = flat fitted curve, though single readings scatter.
Classes used: Y = active, N = inactive

COMPOUND	QUALITATIVE_LABEL
CC(C(=O)O)c1ccc(CC2CCCC2=O)cc1 (configuration not stated)	N
CC(C)NNC(=O)c1ccncc1	N
C[N+](C)(C)CCCCCCCCCC[N+](C)(C)C	Y
Cc1ccc(Cl)c(Nc2ccccc2C(=O)O)c1Cl	N
Nc1c2c(nc3ccccc13)CCCC2O (configuration not stated)	N
CC(C)(Oc1ccc(CCNC(=O)c2ccc(Cl)cc2)cc1)C(=O)O	N
CC[N+](C)(C)c1cccc(O)c1	N
